Target: HLA-B*15:01
Assay: IEDB peptide-MHC binding, purified MHC/direct/fluorescence; filed as Kd, often an IC50 or EC50 that approximates it; bounds were set here for any values at or beyond the usual limits of such assays
Conditions: source organism: Brucella abortus 2308
Measurement label: pKd
When answering, recall that pKd equals minus log10 of the concentration in mol/L, and write that number alone.

What value of measured pKd is listed for RMIESRMSK ?
6.47

====

Molecular target: HLA-A*26:01
Assay: IEDB peptide-MHC binding, purified MHC/competitive/radioactivity; filed as Kd, often an IC50 or EC50 that approximates it; bounds were set here for any values at or beyond the usual limits of such assays
Settings: source organism: Dengue virus 3 Martinique/1243/1999
Measurement label: pKd
When answering, recall that pKd equals minus log10 of the concentration in mol/L, and write that number alone.

What value of measured pKd is listed for TTTGEIGAI ?
5.28

What value of measured pKd is listed for ELIMKDGRKL ?
4.90

The reported measurements were obtained from the Immune Epitope Database (IEDB).
